Biological target: SARS-CoV-2 nucleocapsid protein (Np);DDX3X (SARS-CoV-2;Homo sapiens, UniProt P0DTC9;O00571 1-419;1-662, |)
Assay: EMSA; Np titrated with fixed DDX3X
Conditions: protein: recombinant;recombinant; tags: His (pET30a(+), Ni-NTA purified);pET30a(+) vector; label: 5'-FAM on the 18 mer
VALUE_KIND: Kd
Units required after the number.

Lookup: Fill in: Kd of 18/38 mer FAM partially dsRNA (dsRNA) RNA 1: AUGAAGGUUUGAGUUGAGUGGAGAUAGUGGAGGGUAGU RNA 2: CUCAACUCAAACCUUCAU is ___
Found: 80 nM

Where these numbers come from: paper PMC10058294
